- testedTarget: Gag-Pol polyprotein (Human immunodeficiency virus type 1 group M subtype B (isolate NY5), UniProt P12497)
- methodDescription: 3'-Processing Assay

{"compound": "CO[C@H](C(=O)O)c1c(C)nc2ccc(Br)cc2c1-c1ccc(Cl)cc1", "IC50, nM": 910}
{"compound": "Cc1nc2ccc(Br)cc2c(-c2ccc(Cl)cc2)c1C(OC(C)(C)C)C(=O)O (configuration not stated) [ALLINI-2]", "IC50, nM": 180}

###

- testedTarget: Gag-Pol polyprotein (Human immunodeficiency virus type 1 group M subtype B (isolate NY5), UniProt P12497)
- methodDescription: Strand Trasnfer Assay
pIC50: −log10 of the molar value.
Catalogue of compounds with associated pIC50
attributeMeasured: pIC50

{"compound": "CO[C@H](C(=O)O)c1c(C)nc2ccc(Br)cc2c1-c1ccc(Cl)cc1", "attributeMeasured": "pIC50", "number": 6.40}
{"compound": "Cc1nc2ccc(Br)cc2c(-c2ccc(Cl)cc2)c1C(OC(C)(C)C)C(=O)O (configuration not stated)", "attributeMeasured": "pIC50", "number": 6.77}

###

- testedTarget: Gag-Pol polyprotein [A1275T] (Human immunodeficiency virus type 1 group M subtype B (isolate NY5), UniProt P12497, A1275T)
- methodDescription: Strand Trasnfer Assay
pIC50: −log10 of the molar value.

{"compound": "CO[C@H](C(=O)O)c1c(C)nc2ccc(Br)cc2c1-c1ccc(Cl)cc1", "pIC50": 5.34}
{"compound": "Cc1nc2ccc(Br)cc2c(-c2ccc(Cl)cc2)c1C(OC(C)(C)C)C(=O)O (configuration not stated)", "pIC50": 6.05}

###

- testedTarget: Gag-Pol polyprotein [A1275T] (Human immunodeficiency virus type 1 group M subtype B (isolate NY5), UniProt P12497, A1275T)
- methodDescription: 3'-Processing Assay
Catalogue of molecules with associated IC50

{"molecule": "CO[C@H](C(=O)O)c1c(C)nc2ccc(Br)cc2c1-c1ccc(Cl)cc1", "IC50": "261 µM"}
{"molecule": "Cc1nc2ccc(Br)cc2c(-c2ccc(Cl)cc2)c1C(OC(C)(C)C)C(=O)O (configuration not stated) [ALLINI-2]", "IC50": "200 µM"}
